Reference source for all entries: ChEMBL document CHEMBL1137774

test: Partition coefficient, log P of the compound; assay type: physicochemical; details: octanol/water
Readout name: logP
Just the number, please.

### Prompt Look at this compound and give its reported logP. CCCCCCOC(C)c1c(C)c2cc3nc(c4c5[nH]c(cc6nc(cc1[nH]2)C(C)=C6CC)c(C)c5C(=O)C4)[C@@H](CCC(=O)O)[C@@H]3C (stereo partly specified)
### Response 6
